- assay: in vitro
- test settings: human, Caco-2, Caco-2 (cm/sec)
*1 amine or outer side, *2 acyl side, *3 side chain or, on linkers, in order; H or OH if unused. Where a SMILES comes first, the peptide text is derived from it. Bridges are numbered along the chain shown (N, C = ends). [ ]: non-standard residue; d: D form. The star is where a group is joined. hPhe(3-OMe,4-CONHMe) = CNC(=O)c1ccc(CC[C@H](N)C(=O)O)cc1OC; X11 = CNC(=O)c1ccc(CCN(CC(=O)[*:2])[*:1])cc1OC; NMePhe(3-Cl) = CN[C@@H](Cc1cccc(Cl)c1)C(=O)O; Tyr(3-F) = N[C@@H](Cc1ccc(O)c(F)c1)C(=O)O; NMehPhe = CN[C@@H](CCc1ccccc1)C(=O)O; NMeF = CN[C@@H](Cc1ccccc1)C(=O)O; NMeGABA = CN(CCCC(=O)[*:2])[*:1]; hPhe = N[C@@H](CCc1ccccc1)C(=O)O; NMeL = CN[C@@H](CC(C)C)C(=O)O; NMeAbu = CC[C@H](NC)C(=O)O; NMeA = CN[C@@H](C)C(=O)O; Piperidide = C1CCN(*)CC1; X8 = C1COC[C@@H](C*)N1; NBuGly = CCCCNCC(=O)O; Isopentyl = CC(C)CC*; Ethyl(2-OH) = OCC*; X3 = C[C@H](O)C*; Sar = CNCC(=O)O; tBu = CC(C)(C)*
# T = Papp below 0.4 ×10⁻⁶ cm/s (exclusive); F = Papp at/above 0.4 ×10⁻⁶ cm/s

The following molecules have reported results that may help.
molecule	class label
CC[C@H]1C(=O)N[C@@H](CC(C)C)C(=O)N(C)[C@@H](CC(C)C)C(=O)N(C)[C@@H](Cc2ccccc2)C(=O)N[C@@H](CC(C)C)C(=O)N(C)[C@@H](CC(C)C)C(=O)N(CCc2ccc(C(=O)NC)c(OC)c2)CC(=O)N[C@@H]([C@@H](C)O)C(=O)N(C)CC(=O)N(C)[C@@H](CC(C)C)C(=O)N[C@H](C(=O)N2CCCCC2)CC(=O)N1C [AP223] ([NMeAbu]L[NMeL][NMeF]L[NMeL][X11]T[Sar][NMeL]D-Piperidide; lactam N-11)	F
CC(C)C[C@@H]1NC(=O)[C@H](C)N(C)C(=O)C[C@@H](C(=O)N2CCCCC2)NC(=O)[C@H](CC(C)C)N(C)C(=O)CN(C)C(=O)[C@H](Cc2ccc(O)c(F)c2)NC(=O)[C@H](CC(C)C)N(C)C(=O)[C@H](C)N(C)C(=O)[C@H](C)NC(=O)[C@H](Cc2ccccc2)N(C)C(=O)[C@H](CC(C)C)N(C)C1=O [pd120] ([NMeA]L[NMeL][NMeF]A[NMeA][NMeL][Tyr(3-F)][Sar][NMeL]D-Piperidide; lactam N-11)	T
CC(C)C[C@H]1C(=O)N(C)[C@@H](CCc2ccccc2)C(=O)N[C@@H](COC(C)(C)C)C(=O)N(C)[C@@H](C)C(=O)N[C@H](C(=O)N2CCCCC2)CC(=O)N(C)[C@@H](C)C(=O)N(C)[C@@H](Cc2ccccc2)C(=O)N[C@@H](CCc2ccccc2)C(=O)N(C)[C@@H](CC(C)C)C(=O)N[C@@H]([C@@H](C)O)C(=O)N(C)CC(=O)N1C [pd184] ([NMeA][NMeF][hPhe][NMeL]T[Sar][NMeL][NMehPhe]S(tBu)[NMeA]D-Piperidide; lactam N-11)	F
CC(C)C[C@@H]1NC(=O)[C@H](CCc2ccccc2)N(C)C(=O)[C@H](CCc2ccccc2)N(C)C(=O)[C@H](COCCO)NC(=O)[C@H](CC(C)C)N(C)C(=O)CCCN(C)C(=O)C[C@@H](C(=O)N2CCCCC2)NC(=O)[C@H](CC(C)C)N(C)C(=O)[C@H](CC(C)C)N(C)C(=O)[C@H]([C@@H](C)O)NC(=O)[C@H](CC(C)C)N(C)C1=O [Compound A03] ([NMeGABA][NMeL]S(Ethyl(2-OH))[NMehPhe][NMehPhe]L[NMeL]T[NMeL][NMeL]D-Piperidide; lactam N-11)	T
CC[C@H](C)[C@@H]1NC(=O)[C@H](CC(C)C)N(C)C(=O)CCCN(C)C(=O)C[C@@H](C(=O)N2CCCCC2)NC(=O)[C@H](CC(C)C)N(C)C(=O)[C@H](C)N(C)C(=O)[C@H](Cc2ccc(O)cc2)NC(=O)[C@H](CC(C)C)N(C)C(=O)[C@H](COC(C)(C)C)NC(=O)[C@H](CC(C)C)N(C)C(=O)[C@H](Cc2ccccc2)N(C)C1=O [pd129] ([NMeGABA][NMeL]I[NMeF][NMeL]S(tBu)[NMeL]Y[NMeA][NMeL]D-Piperidide; lactam N-11)	T

**Query** Determine if CCCCN1CC(=O)N(C)[C@@H](Cc2ccccc2)C(=O)N(C)[C@@H](CC(C)C)C(=O)N[C@@H](CCc2ccc(C(=O)NC)c(OC)c2)C(=O)N(C)[C@@H](CC(C)C)C(=O)N[C@H](C(=O)N2CCCCC2)CC(=O)N(C)CC(=O)N(C)[C@@H](CC(C)C)C(=O)N[C@@H]([C@@H](C)CC)C(=O)N(C)[C@@H](CC(C)C)C(=O)N[C@@H]([C@@H](C)O)C1=O [AP207] ([Sar][NMeL]I[NMeL]T[NBuGly][NMeF][NMeL][hPhe(3-OMe,4-CONHMe)][NMeL]D-Piperidide; lactam N-11) shows Papp strictly lower than 0.4 ×10⁻⁶ cm/s.
**Result** F

**Query** Determine if CC[C@H](C)[C@@H]1NC(=O)[C@H](CC(C)C)N(C)C(=O)CCCN(C)C(=O)C[C@@H](C(=O)N2CCCCC2)NC(=O)[C@H](CC(C)C)N(C)C(=O)[C@H](CC(C)C)N(C)C(=O)[C@H]([C@@H](C)O)NC(=O)[C@H](CC(C)C)N(C)C(=O)[C@H](COC[C@@H]2COCCN2)NC(=O)[C@H](CC(C)C)N(C)C(=O)[C@H](Cc2ccccc2)N(C)C1=O [AP241] ([NMeGABA][NMeL]I[NMeF][NMeL]S(X8)[NMeL]T[NMeL][NMeL]D-Piperidide; lactam N-11) shows Papp strictly lower than 0.4 ×10⁻⁶ cm/s.
**Result** T

**Query** Determine if CC(C)CCOC[C@@H]1NC(=O)[C@H](Cc2cccc(Cl)c2)N(C)C(=O)[C@H](Cc2ccccc2)N(C)C(=O)[C@H](COC[C@H](C)O)NC(=O)[C@H](CC(C)C)N(C)C(=O)CCCN(C)C(=O)C[C@@H](C(=O)N2CCCCC2)NC(=O)[C@H](CC(C)C)N(C)C(=O)[C@H](CC(C)C)N(C)C(=O)[C@H]([C@@H](C)O)NC(=O)[C@H](CC(C)C)N(C)C1=O [AP63] ([NMeGABA][NMeL]S(X3)[NMeF][NMePhe(3-Cl)]S(Isopentyl)[NMeL]T[NMeL][NMeL]D-Piperidide; lactam N-11) shows Papp strictly lower than 0.4 ×10⁻⁶ cm/s.
**Result** T
